B1: MATN2 (parent)
chain: TDDSYSCHCLKGFTLNPDKKTCRR

variants of: B1; assay: protein stability index of a GFP-peptide fusion (GPS, HEK-293T) (PSI 1-6); higher = more stable; conditions: c terminus: a fixed tail appended;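 note: lentivirally expressed fusions sorted by FACS into six bins by GFP to DsRed ratio, PSI derived from sequencing read proportions per bin multiplied by bin number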
recorded-metric: protein stability index

Examples from the recorded data:
Task: Recall and state the measured protein stability index for S4W .
Result: 1.81

Task: Recall and state the measured protein stability index for S4E .
Result: 2.79

Task: Recall and state the measured protein stability index for R24Y .
Result: 2.6

Task: Recall and state the measured protein stability index for Y5D .
Result: 2.72

Task: Recall and state the measured protein stability index for L15Y .
Result: 2.45

Kindly give each listed record's protein stability index.
1. D3K
2. P17E
3. P17M
4. D3P
5. L15D
6. P17Y

Result:
1: 1.93; 2: 2.77; 3: 2.71; 4: 2.93; 5: 2.14; 6: 2.26
